B1: glmS ribozyme (parent)
chain: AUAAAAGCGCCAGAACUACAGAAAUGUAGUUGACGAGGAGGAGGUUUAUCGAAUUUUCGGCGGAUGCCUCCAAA

variants of: B1; experiment: self-cleavage kobs at 10000 uM GlcN6P; higher = faster cleavage; RNA array; settings: with glucosamine-6-phosphate
Fewer inactive variants are shown than the library holds.
Definition: the class of an entry is the range in low interval: < 0.0001 s⁻¹; middle interval: ≥ 0.0001 s⁻¹ and < 0.0007 s⁻¹; high interval: ≥ 0.0007 s⁻¹ that contains its self-cleavage kobs at 10000 uM GlcN6P.

Class for AUAAAAGCGCCAGAACUACAGAAAUGUAGUUGACGAGGAGGAGGGUUAUCUAAUUUUCGGCGGAUGCCUCCAAA [U45G G51U] ?
low interval
